target: EGFR (UniProt P00533); conditions: cho.ir
Sequence (P00533 whole entry, looked up): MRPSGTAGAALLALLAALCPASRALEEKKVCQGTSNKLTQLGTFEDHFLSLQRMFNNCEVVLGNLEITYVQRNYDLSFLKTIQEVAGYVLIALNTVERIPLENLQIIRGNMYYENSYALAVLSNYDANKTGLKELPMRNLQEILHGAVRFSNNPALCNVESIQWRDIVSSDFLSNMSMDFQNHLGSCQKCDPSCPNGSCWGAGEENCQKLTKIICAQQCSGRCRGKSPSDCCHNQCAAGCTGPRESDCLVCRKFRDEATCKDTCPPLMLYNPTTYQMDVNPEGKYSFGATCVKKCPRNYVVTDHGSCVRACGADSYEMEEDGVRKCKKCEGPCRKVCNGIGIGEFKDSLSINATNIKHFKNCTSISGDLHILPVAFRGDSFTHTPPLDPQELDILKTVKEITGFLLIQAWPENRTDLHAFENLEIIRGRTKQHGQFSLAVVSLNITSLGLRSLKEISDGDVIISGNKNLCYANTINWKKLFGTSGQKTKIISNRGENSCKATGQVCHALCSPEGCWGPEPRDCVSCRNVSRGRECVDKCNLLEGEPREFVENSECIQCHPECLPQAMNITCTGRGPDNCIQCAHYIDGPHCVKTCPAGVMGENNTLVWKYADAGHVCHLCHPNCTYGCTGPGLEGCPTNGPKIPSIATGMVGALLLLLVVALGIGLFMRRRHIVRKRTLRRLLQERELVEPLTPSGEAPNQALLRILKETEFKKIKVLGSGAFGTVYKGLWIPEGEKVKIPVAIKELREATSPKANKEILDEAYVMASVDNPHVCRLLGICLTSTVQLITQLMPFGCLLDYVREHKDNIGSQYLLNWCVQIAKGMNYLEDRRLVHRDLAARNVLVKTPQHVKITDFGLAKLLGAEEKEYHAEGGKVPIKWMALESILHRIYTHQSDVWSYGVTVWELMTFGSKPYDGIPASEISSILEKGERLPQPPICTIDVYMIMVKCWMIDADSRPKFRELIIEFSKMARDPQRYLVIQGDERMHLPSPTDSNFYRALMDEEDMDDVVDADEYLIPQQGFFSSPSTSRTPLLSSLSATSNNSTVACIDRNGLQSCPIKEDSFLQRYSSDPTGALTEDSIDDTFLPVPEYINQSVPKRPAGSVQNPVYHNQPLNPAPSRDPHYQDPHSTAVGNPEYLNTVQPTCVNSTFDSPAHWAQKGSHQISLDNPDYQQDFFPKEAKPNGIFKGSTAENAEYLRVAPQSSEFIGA
pEC50: −log10 of the molar value.
readout-kind: pEC50

1) C=CC(C)(C)c1[nH]c2ccccc2c1C1=C(O)C(=O)C(c2c[nH]c3c(CC=C(C)C)cccc23)=C(O)C1=O | 4.82
2) O=C1C(O)=C(c2c[nH]c3ccccc23)C(=O)C(O)=C1c1ccccc1 | 4.70
3) Cc1cccc2c(C3=C(O)C(=O)C(c4c[nH]c5ccccc45)=C(O)C3=O)c[nH]c12 | 4.60

----------
target: CDK2 (UniProt P24941); assay: Enzyme Assay
readout-kind: Ki (nM)

1. COc1ccc(F)cc1C(=O)c1cnc(NC2=CCN(S(C)(=O)=O)CC2)nc1N | 7
2. CN1CCC[C@H]1CNC(=O)c1ccc(Nc2nc(N)c(C(=O)c3c(F)cccc3F)s2)cn1 | 320
3. ON=C1c2ccccc2-c2cc3[nH]nnc3cc21 | 680
4. C[C@H](C(=O)Nc1cc(C2CC2)[nH]n1)c1ccc(N2CCCC2=O)cc1 | 31
5. N[C@H](COc1cncc(-c2ccc3[nH]ncc3c2)c1)Cc1c[nH]c2ccccc12 | 42
6. N[C@H](COc1cncc(-c2ccc3cnccc3c2)c1)Cc1c[nH]c2ccccc12 | 82
7. CN1CCC[C@H]1CNC(O)c1ccc(Nc2nc(N)c(C(=O)c3c(F)cccc3F)s2)cn1 (stereo not given in full) | 320
8. Cc1c(CNCC(C)(C)C)cncc1-c1ccc2[nH]nc(-c3nc4ccccc4[nH]3)c2c1 | 1.9

----------
molecular target: EGFR (human); settings: kb
pIC50: −log10 of the molar value.
readout-kind: pIC50

1) CNC(=O)[C@@H]1C[C@@H](Oc2cc3c(Nc4cccc(Cl)c4F)ncnc3cc2OC)CCN1C | 7.21
2) CNC(=O)[C@H]1C[C@H](Oc2cc3c(Nc4cccc(Cl)c4F)ncnc3cc2OC)CCN1C | 7.64
3) COc1cc2ncnc(Nc3cccc(Cl)c3F)c2cc1O[C@H]1CCN(C)[C@H](C(N)=O)C1 | 7.25

----------
target: EGFR (human) (UniProt P00533); conditions: kb
Sequence (P00533 whole entry, looked up): as above
readout-kind: IC50 (nM)

1. COc1cc(OC2CCN(C)CC2)c2c(Nc3ccc(F)c(Cl)c3)ncnc2c1 | 87

----------
biological target: MAPK14 (human) (UniProt Q16539); assay: Inhibition of LPS Induced TNF-alpha Production in THP-1 Cells; details: thp1
Sequence (Q16539 whole entry, looked up): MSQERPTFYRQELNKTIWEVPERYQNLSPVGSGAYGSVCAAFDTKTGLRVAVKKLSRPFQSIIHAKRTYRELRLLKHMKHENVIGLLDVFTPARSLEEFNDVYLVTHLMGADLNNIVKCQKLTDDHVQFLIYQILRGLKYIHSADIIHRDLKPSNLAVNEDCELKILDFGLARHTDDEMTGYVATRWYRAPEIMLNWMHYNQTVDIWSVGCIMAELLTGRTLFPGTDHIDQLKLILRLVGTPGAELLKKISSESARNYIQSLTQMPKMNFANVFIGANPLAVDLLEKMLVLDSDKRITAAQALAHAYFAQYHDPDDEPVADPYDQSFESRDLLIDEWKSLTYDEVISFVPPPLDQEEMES
readout-kind: IC50 (nM)

1) CCC(C)N(C)c1nc(Nc2cc(C(N)=O)ccc2C)nc(N[C@H]2CCNC2)n1 (stereo not given in full) | 325
2) Cc1ccc(C(N)=O)cc1Nc1nc(N[C@H]2CCNC2)nc(N(C)C2CCCCC2)n1 | 1300

----------
biological target: EGFR (human) (UniProt P00533)
readout-kind: IC50 (nM)

1. OC[C@H]1CCCN1Cc1ccc(Nc2nc3ncnc(Nc4ccc(F)c(Cl)c4)c3s2)cc1 | 11

----------
target: PIK3CG (human) (UniProt P48736); assay: Inhibition of PIK3CG Kinase Activity
Sequence (P48736 whole entry, looked up): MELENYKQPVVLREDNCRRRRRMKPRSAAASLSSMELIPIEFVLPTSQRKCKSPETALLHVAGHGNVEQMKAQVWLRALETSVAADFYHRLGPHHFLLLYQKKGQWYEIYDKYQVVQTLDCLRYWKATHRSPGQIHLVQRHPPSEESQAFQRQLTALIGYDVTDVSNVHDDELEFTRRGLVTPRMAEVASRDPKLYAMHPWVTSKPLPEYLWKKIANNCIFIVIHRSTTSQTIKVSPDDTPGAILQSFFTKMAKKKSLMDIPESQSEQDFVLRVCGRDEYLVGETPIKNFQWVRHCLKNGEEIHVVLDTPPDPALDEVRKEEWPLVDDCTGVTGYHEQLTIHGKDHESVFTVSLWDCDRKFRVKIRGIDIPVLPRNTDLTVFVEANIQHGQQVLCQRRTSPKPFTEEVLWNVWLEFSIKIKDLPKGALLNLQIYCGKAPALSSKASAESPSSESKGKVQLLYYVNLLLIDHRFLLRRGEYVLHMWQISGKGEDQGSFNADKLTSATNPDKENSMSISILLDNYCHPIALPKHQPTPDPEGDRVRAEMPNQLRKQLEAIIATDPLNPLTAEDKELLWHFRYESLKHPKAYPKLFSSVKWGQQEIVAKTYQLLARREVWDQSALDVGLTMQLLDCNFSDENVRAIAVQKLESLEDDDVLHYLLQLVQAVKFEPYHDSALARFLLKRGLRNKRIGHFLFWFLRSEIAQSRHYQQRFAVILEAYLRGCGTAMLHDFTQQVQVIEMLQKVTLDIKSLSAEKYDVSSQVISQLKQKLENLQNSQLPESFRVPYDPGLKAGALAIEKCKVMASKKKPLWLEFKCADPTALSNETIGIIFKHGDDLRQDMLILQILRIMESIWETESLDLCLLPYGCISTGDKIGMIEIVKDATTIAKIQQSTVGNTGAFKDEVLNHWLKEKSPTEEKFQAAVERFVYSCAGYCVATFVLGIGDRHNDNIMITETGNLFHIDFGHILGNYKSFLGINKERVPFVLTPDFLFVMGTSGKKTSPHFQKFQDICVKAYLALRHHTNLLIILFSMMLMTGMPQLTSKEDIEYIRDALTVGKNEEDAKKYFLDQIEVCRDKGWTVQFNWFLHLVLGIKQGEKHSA
pKi: −log10 of the molar value.
readout-kind: pKi

1) CC(C)n1nnc(CCNC(=O)Nc2cn3cc(-c4cncc(F)c4)ccc3n2)n1 | 6.77
2) CC(C)n1nnc(CCNC(=O)Nc2cn3cc(-c4cnc5ccccc5c4)ccc3n2)n1 | 6.24
3) Cc1cc(NC(=O)CCNC(=O)Nc2cn3cc(Br)ccc3n2)no1 | 5.30
